# measuredOn: COX-2 (Ovis aries)
# Construct: purchased Cayman chemicals, USA
# Sequence (P79208 17-603): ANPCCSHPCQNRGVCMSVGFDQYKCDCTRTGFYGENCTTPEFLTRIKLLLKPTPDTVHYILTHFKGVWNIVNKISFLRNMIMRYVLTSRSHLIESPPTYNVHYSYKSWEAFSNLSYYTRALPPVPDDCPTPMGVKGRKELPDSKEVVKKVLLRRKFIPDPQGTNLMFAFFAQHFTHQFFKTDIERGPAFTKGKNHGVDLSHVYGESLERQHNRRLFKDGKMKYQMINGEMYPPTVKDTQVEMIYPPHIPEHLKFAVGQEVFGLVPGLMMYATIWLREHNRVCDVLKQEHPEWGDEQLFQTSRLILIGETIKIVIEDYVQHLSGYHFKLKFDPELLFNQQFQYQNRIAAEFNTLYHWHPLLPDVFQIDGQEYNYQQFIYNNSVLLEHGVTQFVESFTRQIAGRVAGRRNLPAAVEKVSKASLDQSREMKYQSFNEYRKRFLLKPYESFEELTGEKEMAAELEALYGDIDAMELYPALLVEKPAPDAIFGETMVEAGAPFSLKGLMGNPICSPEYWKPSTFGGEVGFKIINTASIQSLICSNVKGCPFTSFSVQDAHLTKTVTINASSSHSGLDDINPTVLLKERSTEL
# assayName: In vitro cyclooxygenase inhibitory assay (Cayman colorimetric COX (ovine) inhibitor screening kit), COX-2
# Type: biochemical
# conditionSummary: read-out: COX-2 (%) inhibition
outcomeMeasure: inhibition at 2 µM (%)

>>> reportedvalue("Cc1ccc(S(=O)(=O)N2CC(O)C[C@H]2C(=O)Nc2cc(C)ccn2)cc1 (some centres unmarked) [Compound 7o]")
18
>>> reportedvalue("Cc1ccc(S(=O)(=O)N2CCC[C@H]2C(=O)Nc2cc(C)ccn2)cc1 [Compound 7p]")
20
>>> reportedvalue("Cc1ccnc(NC(=O)[C@@H]2CCCN2S(=O)(=O)c2ccc([N+](=O)[O-])cc2)c1 [Compound 7h]")
13
>>> reportedvalue("Cc1ccnc(NC(=O)[C@@H]2CC(O)CN2S(=O)(=O)c2ccc([N+](=O)[O-])cc2)c1 (some centres unmarked) [Compound 7g]")
20
>>> reportedvalue("Cc1ccnc(NC(=O)[C@H](Cc2cc3ccccc3[nH]2)N(C(=O)c2ccccc2)S(=O)(=O)c2ccc([N+](=O)[O-])cc2)c1 [Compound 7c]")
70

###

Below, each of the compounds is paired with its reported S I (selectivity COX-2/COX-1) value.
# measuredOn: COX-2 (Ovis aries)
# Construct: purchased Cayman chemicals, USA
# assayName: In vitro cyclooxygenase inhibitory assay (Cayman colorimetric COX (ovine) inhibitor screening kit), COX-2
# Type: biochemical
# conditionSummary: ratio of % inhibition COX-2/COX-1 at 2.0 μM
# Protocol: The calculations were performed as per the kit guidelines.
outcomeMeasure: S I (selectivity COX-2/COX-1)

>>> reportedvalue("Cc1ccnc(NC(=O)[C@H](CC(C)C)N(C(=O)c2ccccc2)S(=O)(=O)c2ccc([N+](=O)[O-])cc2)c1 [Compound 7d]")
2.00
>>> reportedvalue("Cc1ccc(S(=O)(=O)N(C(=O)c2ccccc2)[C@@H](CC(C)C)C(=O)Nc2cc(C)ccn2)cc1 [Compound 7l]")
0.95
>>> reportedvalue("Cc1ccc(S(=O)(=O)N(C(=O)c2ccccc2)[C@@H](Cc2ccccc2)C(=O)Nc2cc(C)ccn2)cc1 [Compound 7j]")
3.00

###

# assayName: Determination of LD50 in mice
# conditionSummary: mouse, in vivo, ip; male mice, intraperitoneal, observation 72 h
We begin with a simple list: items and their reported LD50 at 72 h.
outcomeMeasure: LD50 at 72 h (µmol/kg)

>>> reportedvalue("Cc1ccnc(NC(=O)[C@@H]2CCCN2S(=O)(=O)c2ccc([N+](=O)[O-])cc2)c1")
10.7
>>> reportedvalue("Cc1ccnc(NC(=O)[C@H](CC(C)C)N(C(=O)c2ccccc2)S(=O)(=O)c2ccc([N+](=O)[O-])cc2)c1")
12.6
>>> reportedvalue("Cc1ccnc(NC(=O)[C@H](C(C)C)N(C(=O)c2ccccc2)S(=O)(=O)c2ccc([N+](=O)[O-])cc2)c1")
15.8
>>> reportedvalue("Cc1ccc(S(=O)(=O)N(C(=O)c2ccccc2)[C@@H](Cc2cc3ccccc3[nH]2)C(=O)Nc2cc(C)ccn2)cc1")
9.2
>>> reportedvalue("Cc1ccc(S(=O)(=O)N2CC(O)C[C@H]2C(=O)Nc2cc(C)ccn2)cc1 (some centres unmarked)")
10.1
>>> reportedvalue("Cc1ccc(S(=O)(=O)N(CC(=O)Nc2cc(C)ccn2)C(=O)c2ccccc2)cc1")
18.2
>>> reportedvalue("Cc1ccnc(NC(=O)CN(C(=O)c2ccccc2)S(=O)(=O)c2ccc([N+](=O)[O-])cc2)c1")
12.9
>>> reportedvalue("Cc1ccc(S(=O)(=O)N2CCC[C@H]2C(=O)Nc2cc(C)ccn2)cc1")
9.9

The measured values listed here are drawn from paper PMC5602572.
